System: human T lymphoblast cell line (Jurkat)
Test details: Inhibition of T-cell proliferation (Jurkat, 3H-TdR incorporation)
Assay type: cell-based
Reported conditions: Homo sapiens; Jurkat cells, 3 days culture, 3H-TdR pulse last 4 hours
pIC50: −log10 of the molar value.
Entries and their pIC50 values follow.
Property measured: pIC50

>  <Compound structure>
CCC(=O)Nc1ccc(COc2ccc(F)cc2Cl)cc1C(=O)O

>  <Property measured>
pIC50

>  <Experimental value>
6.72

$$$$
>  <Compound structure>
O=C(O)c1cc(OCc2ccc(Br)cc2C(F)(F)F)ccc1NC(=O)C1CC1

>  <Property measured>
pIC50

>  <Experimental value>
6.38

$$$$
>  <Compound structure>
CCC(=O)Nc1ccc(COc2ccc(F)cc2C(F)(F)F)cc1C(=O)O

>  <Property measured>
pIC50

>  <Experimental value>
6.24

$$$$
>  <Compound structure>
CCC(=O)Nc1ccc(COc2ccc(Cl)cc2Cl)cc1C(=O)O

>  <Property measured>
pIC50

>  <Experimental value>
6.46

$$$$
>  <Compound structure>
CCC(=O)Nc1ccc(/C=C/c2ccc(F)cc2Cl)cc1C(=O)O

>  <Property measured>
pIC50

>  <Experimental value>
7.46

$$$$
>  <Compound structure>
CCC(=O)Nc1ccc(COc2ccc(Br)c(Cl)c2)cc1C(=O)O

>  <Property measured>
pIC50

>  <Experimental value>
6.14

$$$$
>  <Compound structure>
CCC(=O)Nc1ccc(COc2ccc(F)c(Cl)c2)cc1C(=O)O

>  <Property measured>
pIC50

>  <Experimental value>
6.38

$$$$
>  <Compound structure>
CCC(=O)Nc1ccc(COc2ccc(Cl)cc2Br)cc1C(=O)O

>  <Property measured>
pIC50

>  <Experimental value>
6.62

$$$$
>  <Compound structure>
CCC(=O)Nc1ccc(COc2ccc(Cl)c(C(F)(F)F)c2)cc1C(=O)O

>  <Property measured>
pIC50

>  <Experimental value>
6.08

$$$$
>  <Compound structure>
CCC(=O)Nc1ccc(OCc2ccc(C(F)(F)F)cc2Br)cc1C(=O)O

>  <Property measured>
pIC50

>  <Experimental value>
6.23

$$$$
